List of growth inhibition values.
Test: NCI Yeast Anticancer Drug Screen. Data for the rad50 strain (AID 155);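 also: 0% = growth of vehicle-only cultures of the same strain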
Settings: S. cerevisiae rad50 strain growth inhibition; at 50.0 µM; active compounds read high
About 79,000 compounds went through this panel and 15% of them were active in at least one assay; those are over-represented in the sample as a whole.
A number alone suffices; assume %.

Determine its reported growth inhibition: COc1cc(C(C)(C)C)cc(OC)c1C(O)(c1c(OC)cc(C(C)(C)C)cc1OC)c1c(OC)cc(C(C)(C)C)cc1OC 78

Tell me measured growth inhibition for Oc1ccc(Cc2nccc3cc(O)c(O)cc23)cc1O please. 48.9

Provide measured growth inhibition value, entry: Cc1cnccc1N=Nc1ccc(N(C)C)cc1 81.8

---

Experiment: NCI Yeast Anticancer Drug Screen. Data for the mec2-1 strain (AID 157)
Conditions: S. cerevisiae mec2-1 strain, at 50.0 µM (retest, dose inferred, filed as 5.0), active compounds read high
This is part of a sample that, as a whole, favours compounds with a hit. Of some 79,000 tested, about 15% had one in any assay.
Readout type: growth inhibition (%)
Numeric only. Scale: %

Known results for compounds:
Look up and state reported growth inhibition for S=C1NC2=C(CSC/C2=C\c2ccc(Cl)cc2)C(c2ccc(Cl)cc2)N1 (stereo unspecified) 95

Assign growth inhibition to the following record: [Cl][Pt+2][Cl].[NH-]CC1(C[NH-])CCCCC1 100

Pending compound:
Please report the measured growth inhibition for O=C(O)NCC1CCCCC1 (tested in a mixture with another compound) 19

---

Test: NCI Yeast Anticancer Drug Screen. Data for the mec2-1 strain (AID 157)
Settings: S. cerevisiae mec2-1 strain, at 33.0 µM
Compounds without any hit were thinned out: in the full panel of roughly 79,000, 15% have a hit. Calls of active or inactive are those of the source. Rule as the data show it: active = growth inhibition above about 70%; inactive = the rest.
// one of true (active), false (inactive), no free text

Use these answered entries as a reference point.
Per the assay record, what outcome was assigned to COc1ccc(/C=C2\S/C(=N/Nc3nc(-c4ccccc4)cs3)NC2=O)cc1OC ? true

Write down the call the test reported for this compound. Item: CCC(C)/C(C)=N/NC(N)=O (stereo not given) false

Query: recorded result category for COc1ccc2nc(N/N=C/c3sccc3C)cc(C)c2c1 in this test true

Dear colleague, could you share the recorded outcome for O=S(=O)(O)CC[S][Sn]([S]CCS(=O)(=O)O)([c]1ccccc1)[c]1ccccc1 when you have a moment? true

Next item in the queue.
What did the test return for O=Cc1ccccc1B(O)O ? true

---

Assay: NCI Yeast Anticancer Drug Screen. Data for the mgt1 strain (AID 153)
Details: S. cerevisiae mgt1 mutant growth inhibition; at 33.0 µM; active compounds read high
The panel holds about 79,000 compounds, 15% with a hit somewhere; the sample as a whole holds those more often.
Readout type: growth inhibition (%)
Give your result in % as a bare value.

Please give measured growth inhibition of the following entry: c1ccc(C2=NNC3c4ccccc4-c4ccccc4N3C2)cc1 (stereo unspecified) -2

Please indicate growth inhibition recorded for O=C(Cc1ccccc1)c1ccc(O)cc1 51

Please give the documented growth inhibition of Nc1nc(Nc2ccccc2)nc(Nc2ccccc2)n1 2

Please supply the value of reported growth inhibition for the item CCCCCC(=O)C(C)(c1nc2n(c1O)/C(=N/C(=O)Nc1ccc(Cl)cc1)N=N2)c1nc2n(c1O)/C(=N/C(=O)Nc1ccc(Cl)cc1)N=N2 9

Give the measured growth inhibition for Cc1ccc2oc(-c3cccc(N)c3)nc2c1 6

---
Hello, please tell me recorded growth inhibition for this one: CCOC(=O)c1sc2[n+](c1C)C(=O)/C(=C/c1cc(OC)c(OC)c(OC)c1)S2 86
